The measurements presented in this section are drawn from PubChem BioAssay AID248.

Reported T/C is given for each of the following compounds.
- System: L1210 leukemia ip in BDF1 mice, survival T/C
- protocol description: NCI In Vivo Anticancer Drug Screen. Data for tumor model L1210 Leukemia (intraperitoneal) in B6D2F1 (BDF1) mice
- experimental setup: endpoint: mean survival time; dose: 400.0 mg/kg/injection; schedule: Q01DX001 (ip); vehicle: carboxymethylcellulose (CMC); higher = longer survival
Toxic doses and inconclusive results are not listed.

Examples with their reported T/C follow.
1) Fc1cc(N(CCCl)CCCl)ccc1C=NCCCN=Cc1ccc(N(CCCl)CCCl)cc1F : 111 % of control
2) COc1ccc(CN2CCCN(Cc3ccc(OC)cc3OC)C2c2cc(OC)ccc2OC)c(OC)c1 : 108 % of control
3) CN1CCC(O)(c2ccc(F)cc2)C(C(=O)c2ccc(F)cc2)C1 (stereo unspecified) : 94 % of control
4) O=C1c2cc([N+](=O)[O-])ccc2-c2ccc([N+](=O)[O-])cc21 : 97 % of control
5) Cc1ccc(S(=O)(=O)c2ccc(C)cc2)cc1 : 105 % of control

Enquiry: Can you share its T/C? I mean this compound: Cc1ccc(S(=O)(=O)Nc2cc(C)cc(CCN)c2C)cc1
Return: 93 % of control
